Data origin: the supplement of paper PMC10065799

- TEST SYSTEM: EPHB1 (UniProt P54762)
- Sequence (P54762 whole entry, looked up): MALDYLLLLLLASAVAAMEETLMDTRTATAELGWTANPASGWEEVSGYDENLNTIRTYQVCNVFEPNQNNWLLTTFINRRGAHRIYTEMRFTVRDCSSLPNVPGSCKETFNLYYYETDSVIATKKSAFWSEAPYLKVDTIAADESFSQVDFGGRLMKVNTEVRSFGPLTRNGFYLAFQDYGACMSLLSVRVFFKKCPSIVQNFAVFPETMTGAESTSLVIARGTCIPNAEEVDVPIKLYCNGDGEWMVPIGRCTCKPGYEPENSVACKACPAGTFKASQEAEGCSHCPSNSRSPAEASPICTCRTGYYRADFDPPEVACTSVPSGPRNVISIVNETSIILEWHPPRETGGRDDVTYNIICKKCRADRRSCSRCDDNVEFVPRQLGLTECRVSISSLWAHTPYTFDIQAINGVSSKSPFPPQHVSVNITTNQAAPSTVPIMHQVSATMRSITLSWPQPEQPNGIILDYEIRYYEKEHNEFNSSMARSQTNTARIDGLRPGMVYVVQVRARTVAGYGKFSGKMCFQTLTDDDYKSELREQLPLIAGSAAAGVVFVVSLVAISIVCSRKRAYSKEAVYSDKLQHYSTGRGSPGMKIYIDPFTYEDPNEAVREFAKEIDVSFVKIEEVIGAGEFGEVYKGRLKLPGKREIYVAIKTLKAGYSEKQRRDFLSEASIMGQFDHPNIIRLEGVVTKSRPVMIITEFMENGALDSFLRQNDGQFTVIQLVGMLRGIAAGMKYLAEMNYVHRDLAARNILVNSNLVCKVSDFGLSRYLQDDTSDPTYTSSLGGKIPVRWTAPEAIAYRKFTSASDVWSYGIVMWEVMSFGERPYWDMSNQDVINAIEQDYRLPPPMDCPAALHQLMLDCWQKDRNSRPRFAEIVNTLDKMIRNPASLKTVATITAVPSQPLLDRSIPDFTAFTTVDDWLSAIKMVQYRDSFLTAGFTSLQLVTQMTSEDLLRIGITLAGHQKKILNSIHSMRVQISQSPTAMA
- TEST NAME: phosphorylation enrichment, bacterial display (enrichment ratio); higher = better substrate or ligand; peptides without Tyr show the background
Tag: fulfilled if measured phosphorylation enrichment is not below 0.7, not fulfilled if it is.

Here are 4 sequences together with their reported answers.
Entry DLVSEYQQFQD [TUBB3_Y422_YF] : is its phosphorylation enrichment no less than 0.7? fulfilled

Entry HFEDGYPGGSD [CTNND1_Y221_YF] : is its phosphorylation enrichment no less than 0.7? not fulfilled

Entry RYFTTYDTNGR [CLCA1_Y665] : is its phosphorylation enrichment no less than 0.7? not fulfilled

Entry TLERHYKELQA [SPTBN2_Y834_E835K] : is its phosphorylation enrichment no less than 0.7? not fulfilled

New cases:
Entry ENGPFYTSFPP [GDAP2_Y488_YF] : is its phosphorylation enrichment no less than 0.7? fulfilled

Entry AGGTRYRYVSQ [UCN3_Y95_R91G] : is its phosphorylation enrichment no less than 0.7? not fulfilled

----------
- TEST SYSTEM: EPHB2 (UniProt P29323)
- Sequence (P29323 whole entry, looked up): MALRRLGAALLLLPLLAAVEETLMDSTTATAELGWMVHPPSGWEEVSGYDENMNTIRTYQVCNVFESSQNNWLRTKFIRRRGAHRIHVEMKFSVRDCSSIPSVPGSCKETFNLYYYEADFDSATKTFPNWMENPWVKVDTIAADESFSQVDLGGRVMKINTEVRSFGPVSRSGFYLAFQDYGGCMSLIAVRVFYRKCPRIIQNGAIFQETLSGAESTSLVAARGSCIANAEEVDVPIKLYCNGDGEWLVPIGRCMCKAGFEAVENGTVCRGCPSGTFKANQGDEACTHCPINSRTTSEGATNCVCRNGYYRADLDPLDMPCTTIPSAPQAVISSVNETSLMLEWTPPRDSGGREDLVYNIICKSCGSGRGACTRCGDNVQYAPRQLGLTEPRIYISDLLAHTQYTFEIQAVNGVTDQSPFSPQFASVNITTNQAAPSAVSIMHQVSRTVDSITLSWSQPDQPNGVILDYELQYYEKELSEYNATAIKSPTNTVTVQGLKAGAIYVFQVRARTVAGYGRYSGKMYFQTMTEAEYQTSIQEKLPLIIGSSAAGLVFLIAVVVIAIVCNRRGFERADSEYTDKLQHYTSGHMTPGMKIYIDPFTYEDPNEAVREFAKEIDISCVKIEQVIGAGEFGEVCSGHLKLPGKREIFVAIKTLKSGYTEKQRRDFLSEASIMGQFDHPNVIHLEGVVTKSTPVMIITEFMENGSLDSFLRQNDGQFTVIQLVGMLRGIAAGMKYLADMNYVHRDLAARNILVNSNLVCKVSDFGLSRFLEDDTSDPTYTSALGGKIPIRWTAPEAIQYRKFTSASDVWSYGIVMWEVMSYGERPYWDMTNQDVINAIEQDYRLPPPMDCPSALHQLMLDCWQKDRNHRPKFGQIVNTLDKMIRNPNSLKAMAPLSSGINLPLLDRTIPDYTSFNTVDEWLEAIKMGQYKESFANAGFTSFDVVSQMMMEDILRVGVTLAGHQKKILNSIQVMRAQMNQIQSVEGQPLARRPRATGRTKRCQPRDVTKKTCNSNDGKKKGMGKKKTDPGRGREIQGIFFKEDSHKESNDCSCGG
- TEST NAME: phosphorylation enrichment, bacterial display (enrichment ratio); higher = better substrate or ligand; peptides without Tyr show the background
Listed here: items and their measured phosphorylation enrichment.
Kindly provide the number alone.

Quick note, phosphorylation enrichment for LAETSYVTVLE [MAGEA1_Y276_K278T] landed at 0.968

Quick note, phosphorylation enrichment for QYPDVYAREEV [CRX_Y67] landed at 1.82

Quick note, phosphorylation enrichment for ENEGTYVCIAA [ADAMTSL3_Y1365_T1370A] landed at 1.09

New cases:
Quick note, phosphorylation enrichment for NVADHYRVYKP [ATP6V0D2_Y271_G272R] landed at 0.574

Quick note, phosphorylation enrichment for SSQTVYQRVEG [TFR2_Y23] landed at 0.447

Quick note, phosphorylation enrichment for YIPSNYVAEDR [FRK_Y104] landed at 0.623

Quick note, phosphorylation enrichment for DKANRYFSPNF [PTEN_Y336] landed at 0.301

----------
- Test system: Fer (mouse)
- TEST NAME: phosphorylation enrichment, bacterial display (enrichment ratio); higher = better substrate or ligand; peptides without Tyr show the background
Tag: Fulfilled if measured phosphorylation enrichment is not below 0.6, Not fulfilled if it is.

Entry ASTHIYQIMNH [ITK_Y588_V587I] : is its phosphorylation enrichment no less than 0.6? Fulfilled

New cases:
Entry DHAGTYGLGDR [MAPT_Y18] : is its phosphorylation enrichment no less than 0.6? Not fulfilled

Entry PYRSIYFSSPK [MPG_Y75] : is its phosphorylation enrichment no less than 0.6? Fulfilled

Entry FNNPAYFVLEG [INPPL1_Y986_YF] : is its phosphorylation enrichment no less than 0.6? Not fulfilled

Entry YLTSSYINIST [IL23R_Y178] : is its phosphorylation enrichment no less than 0.6? Not fulfilled

Entry RLSPEYKQNEI [GJB1_Y243] : is its phosphorylation enrichment no less than 0.6? Not fulfilled

----------
Listed here: items and their measured phosphorylation enrichment.
- TEST SYSTEM: Jak2 (UniProt O60674)
- Sequence (O60674 whole entry, looked up): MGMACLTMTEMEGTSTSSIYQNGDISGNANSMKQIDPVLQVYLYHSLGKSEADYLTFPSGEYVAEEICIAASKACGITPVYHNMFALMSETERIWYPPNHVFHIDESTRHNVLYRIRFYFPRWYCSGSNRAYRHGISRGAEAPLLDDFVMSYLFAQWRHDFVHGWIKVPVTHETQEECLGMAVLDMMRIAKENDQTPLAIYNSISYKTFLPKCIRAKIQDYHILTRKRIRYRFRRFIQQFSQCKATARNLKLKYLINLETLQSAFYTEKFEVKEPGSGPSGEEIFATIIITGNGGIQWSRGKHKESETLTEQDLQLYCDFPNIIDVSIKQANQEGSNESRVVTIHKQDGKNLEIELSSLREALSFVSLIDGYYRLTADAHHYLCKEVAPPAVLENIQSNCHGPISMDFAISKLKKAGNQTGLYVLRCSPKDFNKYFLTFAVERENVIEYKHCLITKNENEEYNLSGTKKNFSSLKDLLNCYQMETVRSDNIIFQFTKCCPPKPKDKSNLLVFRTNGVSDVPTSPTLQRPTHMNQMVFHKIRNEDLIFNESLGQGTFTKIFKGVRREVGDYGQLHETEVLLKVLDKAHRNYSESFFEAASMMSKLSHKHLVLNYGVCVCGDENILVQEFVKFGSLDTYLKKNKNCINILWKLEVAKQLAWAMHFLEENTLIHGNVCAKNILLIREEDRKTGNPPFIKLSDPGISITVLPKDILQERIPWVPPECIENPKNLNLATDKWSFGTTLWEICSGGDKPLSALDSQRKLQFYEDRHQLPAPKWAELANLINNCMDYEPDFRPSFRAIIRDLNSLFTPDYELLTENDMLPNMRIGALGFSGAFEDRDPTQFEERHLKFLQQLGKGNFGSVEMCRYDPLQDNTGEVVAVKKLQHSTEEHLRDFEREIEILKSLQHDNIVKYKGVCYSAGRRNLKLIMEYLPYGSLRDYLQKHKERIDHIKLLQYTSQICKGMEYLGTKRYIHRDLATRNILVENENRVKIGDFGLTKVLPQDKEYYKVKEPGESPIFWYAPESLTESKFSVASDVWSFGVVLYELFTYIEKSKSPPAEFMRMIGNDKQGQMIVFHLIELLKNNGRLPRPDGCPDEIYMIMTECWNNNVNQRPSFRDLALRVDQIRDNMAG
- TEST NAME: phosphorylation enrichment, bacterial display (enrichment ratio); higher = better substrate or ligand; peptides without Tyr show the background
Kindly provide the number alone.

The following sequences have reported results that may help.
Quick note, phosphorylation enrichment for SVTCTYSPAPN [TP53_Y126_L130P] landed at 0.999

Quick note, phosphorylation enrichment for PNAYIYVVQLP [L1CAM_Y420_A415P] landed at 1.75

Quick note, phosphorylation enrichment for DAICYYRMENA [NPHS2_Y195] landed at 6.63

New cases:
Quick note, phosphorylation enrichment for ERRLIYASDPK [VPS13D_Y864_T865A] landed at 0.506

----------
- Test system: Fer (mouse)
- TEST NAME: phosphorylation enrichment, bacterial display (enrichment ratio); higher = better substrate or ligand; peptides without Tyr show the background
Listed here: items and their measured phosphorylation enrichment.
Kindly provide the number alone.

Quick note, phosphorylation enrichment for TLKVGYTEKQR [EPHA3_Y659] landed at 0.386

New cases:
Quick note, phosphorylation enrichment for SAPDSYIGIGN [SLC38A4_Y27] landed at 0.404

Quick note, phosphorylation enrichment for NTYEKYLEEEY [TF_Y669_G671E] landed at 0.563

Quick note, phosphorylation enrichment for PDDPDYSLVDD [PSTPIP2_Y323_N322D] landed at 0.894

Quick note, phosphorylation enrichment for GDAMLYFPSVS [GPR143_Y177_A173D_YF] landed at 0.521

Quick note, phosphorylation enrichment for PPSGEYFGHCG [TRIP6_Y275_Q278H] landed at 0.668

Quick note, phosphorylation enrichment for HEEDNYIELIP [NWD2_Y566] landed at 1.27

Quick note, phosphorylation enrichment for FGEFRYRSVIK [CFTR_Y517_D513G_YF] landed at 0.396

Quick note, phosphorylation enrichment for PLQDVYKIGGI [EEF1A2_Y254] landed at 0.679

Quick note, phosphorylation enrichment for ALRASYTPSPA [ESS2_Y418] landed at 0.367

Quick note, phosphorylation enrichment for LNPDGYEKAFE [CPXM2_Y427_YF] landed at 0.557

Quick note, phosphorylation enrichment for VIESSYQVAKA [CPT1B_Y534] landed at 0.448

Quick note, phosphorylation enrichment for IRNRDYDDIDD [TTYH2_Y424_T419I] landed at 0.494

----------
- TEST SYSTEM: c-Src SH2
- TEST NAME: SH2 binding enrichment of the phosphorylated peptide, bacterial display (enrichment ratio); higher = better substrate or ligand; peptides without Tyr show the background
Listed here: items and their measured SH2 binding enrichment.
Kindly provide the number alone.

Quick note, SH2 binding enrichment for EKESCYILHSS [PATJ_Y783_E779K] landed at 0.719

Quick note, SH2 binding enrichment for TEQMAYCPIQC [SHC4_Y403] landed at 0.777

Quick note, SH2 binding enrichment for VIEYSYTSADG [DHCR7_Y382_C380Y] landed at 6.21

Quick note, SH2 binding enrichment for IRNRDYDDIDD [TTYH2_Y424_T419I] landed at 0.537

Quick note, SH2 binding enrichment for ALDHKYHGGGG [HBB_Y146_A143D] landed at 0.479

New cases:
Quick note, SH2 binding enrichment for EPNSRYTCKLE [USH2A_Y3745_Y3747C] landed at 0.576

Quick note, SH2 binding enrichment for KTDKKYLMIEE [BAG3_Y451] landed at 0.473

----------
- TEST SYSTEM: Jak2 (UniProt O60674)
- TEST NAME: phosphorylation enrichment, bacterial display (enrichment ratio); higher = better substrate or ligand; peptides without Tyr show the background
Classes (phosphorylation enrichment): low range = under 0.7, mid range = from 0.7 up to 1, high range = 1 and over

Hey, which category is KLADMYGGGKD [CDH1_Y876_E880K] in, do you know? low range

New cases:
Hey, which category is PNRILYGDFRQ [MYH6_Y717] in, do you know? mid range

Hey, which category is HGQVNYEEFVQ [CALM2_Y139_D134H] in, do you know? high range

Hey, which category is SDQRRYSLIDP [CLIP2_Y972_R977P] in, do you know? low range

Hey, which category is VDSNPYSRLVA [UBA5_Y53_M57V] in, do you know? low range

Hey, which category is HTKKNYGNSSV [HDX_Y197_A193T] in, do you know? low range

Hey, which category is TVQVAYYTVMM [SPATA17_Y83_M86V] in, do you know? high range

Hey, which category is CLAKMYFSAVE [CP_Y539_D544E_YF] in, do you know? high range

Hey, which category is RAILNYIASKY [GSTA3_Y74] in, do you know? mid range

----------
- TEST SYSTEM: Grb2 SH2 (UniProt P62993)
- Sequence (P62993 whole entry, looked up): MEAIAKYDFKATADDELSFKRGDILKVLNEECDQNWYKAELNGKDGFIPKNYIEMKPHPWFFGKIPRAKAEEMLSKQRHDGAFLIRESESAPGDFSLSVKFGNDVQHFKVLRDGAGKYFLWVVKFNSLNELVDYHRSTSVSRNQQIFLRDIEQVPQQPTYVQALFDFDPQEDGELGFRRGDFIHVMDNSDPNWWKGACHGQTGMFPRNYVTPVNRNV
- TEST NAME: SH2 binding enrichment of the phosphorylated peptide, bacterial display (enrichment ratio); higher = better substrate or ligand; peptides without Tyr show the background
Listed here: items and their measured SH2 binding enrichment.
Kindly provide the number alone.

The following sequences have reported results that may help.
Quick note, SH2 binding enrichment for AAALAYGLDKS [HSPA9_Y230] landed at 0.69

Quick note, SH2 binding enrichment for GGGCGYNRSSG [FUS_Y232_G230C] landed at 0.802

Quick note, SH2 binding enrichment for CRAVKYLQMVG [AVPR2_Y117] landed at 0.964

Quick note, SH2 binding enrichment for YGIAQYCCRMG [LRRK2_Y2023] landed at 1.21

Quick note, SH2 binding enrichment for DLVSEYQQFQD [TUBB3_Y422_YF] landed at 0.918

Quick note, SH2 binding enrichment for FDDIAYIQKTL [PIK3CA_Y1021_R1023Q] landed at 0.939

Field: next sequence
Quick note, SH2 binding enrichment for SKHRLYSDLQT [PTCHD1_Y84] landed at 1.3
